Test system: biotinyl-Val-oxazolone
experimental-details: self-aminoacylation, catalytic enhancement (BVO) (fold over background); higher = more active; k-Seq, kA / k0A0; sequences stand for … in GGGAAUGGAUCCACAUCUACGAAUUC…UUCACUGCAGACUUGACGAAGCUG
Fewer inactive variants are shown than the library holds.
quantity: self-aminoacylation

INSERT INTO assay_data (record_sequence, measured_on, quantity, meas_value) VALUES
  ('AUUCUCCUAUGUCAUCGGGUG [Fam2.2 aminoacylation ribozyme variant]', 'biotinyl-Val-oxazolone', 'self-aminoacylation', 5.62),
  ('CCACAGUACAAGCAAUCGGUC [Fam1B.1 aminoacylation ribozyme variant]', 'biotinyl-Val-oxazolone', 'self-aminoacylation', 1.24),
  ('AUUCACUUUGGUCAUCGGGUG [Fam2.2 aminoacylation ribozyme variant]', 'biotinyl-Val-oxazolone', 'self-aminoacylation', 4.71),
  ('AAGUUUGCUAAUAGGCGCAAU [Fam3.1 aminoacylation ribozyme variant]', 'biotinyl-Val-oxazolone', 'self-aminoacylation', 1.58),
  ('CUACUUCAAACAAUCGGUCCG [Fam1A.1 aminoacylation ribozyme variant]', 'biotinyl-Val-oxazolone', 'self-aminoacylation', 0.749),
  ('GUUACCCUGGUCAUCGAGUGG [Fam2.1 aminoacylation ribozyme variant]', 'biotinyl-Val-oxazolone', 'self-aminoacylation', 17.4),
  ('AAUCACCUAGAUCAUCGGGUG [Fam2.2 aminoacylation ribozyme variant]', 'biotinyl-Val-oxazolone', 'self-aminoacylation', 2.68),
  ('AUACACCUAGGUCACCGGGUG [Fam2.2 aminoacylation ribozyme variant]', 'biotinyl-Val-oxazolone', 'self-aminoacylation', 3.23),
  ('AUUCACCUAGUUCUUCGGGUG [Fam2.2 aminoacylation ribozyme variant]', 'biotinyl-Val-oxazolone', 'self-aminoacylation', 2.43),
  ('CCUCACUUCAAGCAAUCGGUU [Fam1B.1 aminoacylation ribozyme variant]', 'biotinyl-Val-oxazolone', 'self-aminoacylation', 1.61),
  ('CUUACCCUGGUCAUAGAGUGA [Fam2.1 aminoacylation ribozyme variant]', 'biotinyl-Val-oxazolone', 'self-aminoacylation', 2.83),
  ('CCACACUUCAAGCUACCGGUC [Fam1B.1 aminoacylation ribozyme variant]', 'biotinyl-Val-oxazolone', 'self-aminoacylation', 1.3);

###

Tested on: biotinyl-Leu-oxazolone
experimental-details: self-aminoacylation, catalytic enhancement (BLO) (fold over background); higher = more active; k-Seq, kA / k0A0; sequences stand for … in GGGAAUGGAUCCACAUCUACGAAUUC…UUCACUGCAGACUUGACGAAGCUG
Variants at the floor of the assay were thinned out.
Could you label it 1 (yes) if measured self-aminoacylation is 2 or higher, and 0 (no) otherwise?

INSERT INTO results (record_sequence, assigned_category) VALUES
  ('AUUCCCCUGGUCAACGAGUGA [Fam2.1 aminoacylation ribozyme variant]', '1 (yes)'),
  ('AUUAUCCUGGUCAUCAAGUGA [Fam2.1 aminoacylation ribozyme variant]', '1 (yes)'),
  ('AUUCACCUAGGCCAUCGGUUG [Fam2.2 aminoacylation ribozyme variant]', '0 (no)'),
  ('AAAUUUGCUCAUAGUCGCAAG [Fam3.1 aminoacylation ribozyme variant]', '0 (no)'),
  ('AUUCACCUAUGUCAUGGGGUG [Fam2.2 aminoacylation ribozyme variant]', '1 (yes)'),
  ('ACUCACCUAGGCCAUCGGGUG [Fam2.2 aminoacylation ribozyme variant]', '1 (yes)'),
  ('CUAGUUAAAACAAUCGGUCUG [Fam1A.1 aminoacylation ribozyme variant]', '0 (no)'),
  ('CUACUUCAAGCAAUCGGUAUG [Fam1A.1 aminoacylation ribozyme variant]', '0 (no)'),
  ('CGACACUUCAAGCAAACGGUC [Fam1B.1 aminoacylation ribozyme variant]', '0 (no)'),
  ('ACUCACAUAGGUCAUCGGGUG [Fam2.2 aminoacylation ribozyme variant]', '1 (yes)'),
  ('CUACUUCAAACAUUCUGUCUG [Fam1A.1 aminoacylation ribozyme variant]', '0 (no)'),
  ('AUGUUUGCUAGUAGUCGCAAG [Fam3.1 aminoacylation ribozyme variant]', '0 (no)'),
  ('AAUACACUGGUCAUCGAGUGA [Fam2.1 aminoacylation ribozyme variant]', '1 (yes)'),
  ('AUUUCCCUAGGUCAUCGGGUG [Fam2.2 aminoacylation ribozyme variant]', '1 (yes)'),
  ('AUUCACCUCGGUUAUCGGGUG [Fam2.2 aminoacylation ribozyme variant]', '1 (yes)'),
  ('AUUCACAUAGGGCAUCGGGUG [Fam2.2 aminoacylation ribozyme variant]', '1 (yes)'),
  ('UUACUUCAAACAACCGGUCUG [Fam1A.1 aminoacylation ribozyme variant]', '0 (no)'),
  ('AUUUACCUAGGUCAUCGAGUG [Fam2.2 aminoacylation ribozyme variant]', '1 (yes)'),
  ('AUUUCCCUGGUCAUCUAGUGA [Fam2.1 aminoacylation ribozyme variant]', '1 (yes)'),
  ('CUACUUCAAACGAUCAGUCUG [Fam1A.1 aminoacylation ribozyme variant]', '0 (no)'),
  ('ACGUUUGCUAAGAGUCGCAAG [Fam3.1 aminoacylation ribozyme variant]', '0 (no)');

The reported numbers originate from the supplement of paper PMC9233669.
